# testedSystem: T1, PDZD7_3, Q9H5P4
# T1 sequence (Q9H5P4 857-944, limits assumed, looked up): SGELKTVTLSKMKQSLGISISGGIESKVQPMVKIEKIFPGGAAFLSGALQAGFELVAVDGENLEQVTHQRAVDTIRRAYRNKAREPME
# experiment: holdup assay
# Parameters: key: below the threshold = too weak to quantify, mostly under pKd 3.1 to 4
# conditionContext: plain residues with an end cap or a label only (N-terminal biotin on a linker: ado-ado)
Provide the reported pKd of each item.
Numbers only.

Examples with answers:
SKENVQETQI [LRRC4B, Q9NT99] ... 5.39
VNKSKLLTDV [KCNA1, Q09470] ... 4.36
MLSKQSESAI [FLVCR1, Q9Y5Y0] ... 3.78

Could you tell me pKd for each of these binders? They are listed below.
1. VRNLPESEEL [MYOZ3, Q8TDC0]
2. VKPQVSESKL [ACOT8, O14734]
3. RRISSLESEV [GRIN2C, Q14957]
4. NLSIEKETKL [ASNSD1, Q9NWL6]
5. SAAKVLTSMC [GHRHR, Q02643]
6. GNSVLKSTQF [SLC22A12, Q96S37]
7. PRAEAEDSFL [PDGFRB, P09619]
8. YLEPVLSSEL [ATP2A2, P16615;P16615-3]

1. 3.74
2. 4.15
3. 4.32
4. 4.68
5. 4.7
6. 4
7. 3.56
8. 4.91

Dear colleague, could you please provide pKd for the binders listed below?
1. SGSLKLMTTV [DACT1, Q9NYF0]
2. QSLNRMEYIV [JAG1, P78504]
3. RKPKPSSSCC [RAB9A, P51151]
4. TSQESEDTYL [TBC1D10A, Q9BXI6]
5. EVEEFPETSV [TRPV3, Q8NET8]

1: 5.22; 2: 3.68; 3: 3.76; 4: 3.9; 5: 4.82
